Origin of measurements: ChEMBL document CHEMBL1139781

Assay: Plasma clearance in mouse
Assay type: ADME, organism-based
assay metric: clearance (mL/min/kg)
// note: answer is a bare numeric in mL/min/kg

Nc1ncnc2c1c(-c1ccc3nc(Cc4cccs4)[nH]c3c1)nn2[C@H]1CC[C@H](N2CCOCC2)CC1
76.7

Give the value of clearance reported for the following: `Nc1ncnc2c1c(-c1ccc3nc(Cc4ccccc4)[nH]c3c1)nn2[C@H]1CC[C@H](N2CCOCC2)CC1`
38.3

Give the value of clearance reported for the following: `Nc1ncnc2c1c(-c1ccc3nc(Cc4ccccc4Cl)[nH]c3c1)nn2[C@H]1CC[C@H](N2CCOCC2)CC1`
20

---

Biological target: Insulin-like growth factor 1 receptor (Homo sapiens, UniProt P08069)
Sequence (P08069 31-736 limits assumed): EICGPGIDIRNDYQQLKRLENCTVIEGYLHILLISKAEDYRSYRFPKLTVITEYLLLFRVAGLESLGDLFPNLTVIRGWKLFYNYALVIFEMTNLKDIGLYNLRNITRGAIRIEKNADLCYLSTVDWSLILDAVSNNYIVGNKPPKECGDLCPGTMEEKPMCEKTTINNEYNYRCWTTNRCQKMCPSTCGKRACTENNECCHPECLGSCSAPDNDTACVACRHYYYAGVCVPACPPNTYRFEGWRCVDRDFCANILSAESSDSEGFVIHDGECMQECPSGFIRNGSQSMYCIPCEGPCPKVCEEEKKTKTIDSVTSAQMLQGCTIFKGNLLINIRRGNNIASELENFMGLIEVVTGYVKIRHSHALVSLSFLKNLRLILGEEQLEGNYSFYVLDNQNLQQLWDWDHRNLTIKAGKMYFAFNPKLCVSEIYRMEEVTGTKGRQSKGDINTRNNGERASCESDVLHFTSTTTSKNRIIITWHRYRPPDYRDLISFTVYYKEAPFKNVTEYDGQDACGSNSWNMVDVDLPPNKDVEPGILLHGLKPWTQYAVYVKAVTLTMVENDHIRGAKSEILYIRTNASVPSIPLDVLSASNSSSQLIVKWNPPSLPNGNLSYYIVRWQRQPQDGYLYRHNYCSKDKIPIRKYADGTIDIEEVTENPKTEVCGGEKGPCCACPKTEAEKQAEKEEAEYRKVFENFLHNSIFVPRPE
Sequence (P08069 741-1367 limits assumed): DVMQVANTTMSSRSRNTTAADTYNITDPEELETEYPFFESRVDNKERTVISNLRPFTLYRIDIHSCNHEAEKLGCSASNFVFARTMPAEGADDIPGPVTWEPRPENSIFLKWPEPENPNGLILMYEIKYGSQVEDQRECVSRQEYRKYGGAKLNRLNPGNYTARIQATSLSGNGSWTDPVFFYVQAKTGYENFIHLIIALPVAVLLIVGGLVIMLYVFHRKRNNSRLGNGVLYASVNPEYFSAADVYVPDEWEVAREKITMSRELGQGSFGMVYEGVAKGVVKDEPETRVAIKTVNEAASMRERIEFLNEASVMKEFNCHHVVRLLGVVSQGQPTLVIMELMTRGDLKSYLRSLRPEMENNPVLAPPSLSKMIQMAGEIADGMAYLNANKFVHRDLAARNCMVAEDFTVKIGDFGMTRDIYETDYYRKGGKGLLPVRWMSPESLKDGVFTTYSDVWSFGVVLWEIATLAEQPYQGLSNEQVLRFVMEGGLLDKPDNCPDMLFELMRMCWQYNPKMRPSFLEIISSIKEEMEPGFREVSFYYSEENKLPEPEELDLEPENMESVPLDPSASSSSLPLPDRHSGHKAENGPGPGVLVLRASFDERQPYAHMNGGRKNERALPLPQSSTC
Assay: Inhibition of human IGF1R expressed in Sf21 cells by time-resolved fluorescence assay
Criterion met if IC50 is below 500 nM. Criterion not met if not; exact matches included in Criterion not met.

These solved cases illustrate the format of a correct answer.
Nc1ncnc2c1c(-c1ccc3[nH]c(-c4ccccc4)nc3c1)nn2[C@H]1CC[C@H](N2CCOCC2)CC1
Criterion met
Nc1ncnc2c1c(-c1ccc3nc(Cc4ccc(Cl)cc4)[nH]c3c1)nn2[C@H]1CC[C@H](N2CCOCC2)CC1
Criterion not met
Nc1ncnc2c1c(-c1ccc3nc(Cc4ccccc4F)[nH]c3c1)nn2[C@H]1CC[C@H](N2CCOCC2)CC1
Criterion met
Nc1ncnc2c1c(-c1ccc3nc(Cc4ccsc4)[nH]c3c1)nn2[C@H]1CC[C@H](N2CCOCC2)CC1
Criterion met

API: query returns whether the compound falls strictly under 500 nM in IC50. Query: `Nc1ncnc2c1c(-c1ccc3nc(Cc4ccc(F)cc4)[nH]c3c1)nn2[C@H]1CC[C@H](N2CCOCC2)CC1`
Criterion not met

API: query returns whether the compound falls strictly under 500 nM in IC50. Query: `Nc1ncnc2c1c(-c1ccc3nc(Cc4cccc(F)c4F)[nH]c3c1)nn2[C@H]1CC[C@H](N2CCOCC2)CC1`
Criterion met

API: query returns whether the compound falls strictly under 500 nM in IC50. Query: `Cn1c(Cc2ccccc2)nc2cc(-c3nn([C@H]4CC[C@H](N5CCOCC5)CC4)c4ncnc(N)c34)ccc21`
Criterion met

---

Each item that follows carries a reported log10 IC50.
Molecular target: Insulin-like growth factor 1 receptor (Homo sapiens, UniProt P08069)
Test: Inhibition of human IGF1R expressed in Sf21 cells by time-resolved fluorescence assay
All values: base-10 log of IC50 in nM.

Please review the following examples before continuing.
Cc1cc(-c2nn([C@H]3CC[C@H](N4CCOCC4)CC3)c3ncnc(N)c23)cc2[nH]c(Cc3ccccc3)nc12
3.64
Nc1ncnc2c1c(-c1ccc3nc(Cc4ccccn4)[nH]c3c1)nn2[C@H]1CC[C@H](N2CCOCC2)CC1
3.37

Give the value of log10 IC50 reported for the following: `Cc1ccc(Cc2nc3ccc(-c4nn([C@H]5CC[C@H](N6CCOCC6)CC5)c5ncnc(N)c45)cc3[nH]2)cc1`
1.85

Give the value of log10 IC50 reported for the following: `Nc1ncnc2c1c(-c1ccc3nc(Cc4cc(F)cc(F)c4)[nH]c3c1)nn2[C@H]1CC[C@H](N2CCOCC2)CC1`
2.18

Give the value of log10 IC50 reported for the following: `Cc1ccccc1Cc1nc2ccc(-c3nn([C@H]4CC[C@H](N5CCOCC5)CC4)c4ncnc(N)c34)cc2[nH]1`
1.58

Give the value of log10 IC50 reported for the following: `Nc1ncnc2c1c(-c1ccc3nc(Cc4ccc(F)c(F)c4)[nH]c3c1)nn2[C@H]1CC[C@H](N2CCOCC2)CC1`
2.83

Give the value of log10 IC50 reported for the following: `Nc1ncnc2c1c(-c1ccc3[nH]c(Cc4c(Cl)cccc4Cl)nc3c1)nn2[C@H]1CC[C@H](N2CCOCC2)CC1`
2.10

Give the value of log10 IC50 reported for the following: `Nc1ncnc2c1c(-c1ccc3nc(Cc4ccc5ccccc5c4)[nH]c3c1)nn2[C@H]1CC[C@H](N2CCOCC2)CC1`
3.12

Give the value of log10 IC50 reported for the following: `Nc1ncnc2c1c(-c1ccc3[nH]c(Cc4cccc(Cl)c4Cl)nc3c1)nn2[C@H]1CC[C@H](N2CCOCC2)CC1`
3.37

Give the value of log10 IC50 reported for the following: `Nc1ncnc2c1c(-c1ccc3nc(Cc4cccs4)[nH]c3c1)nn2[C@H]1CC[C@H](N2CCOCC2)CC1`
1.36

Give the value of log10 IC50 reported for the following: `Cc1cccc(Cc2nc3ccc(-c4nn([C@H]5CC[C@H](N6CCOCC6)CC5)c5ncnc(N)c45)cc3[nH]2)c1`
2.27

Give the value of log10 IC50 reported for the following: `Nc1ncnc2c1c(-c1ccc3nc(Cc4cccc(F)c4)[nH]c3c1)nn2[C@H]1CC[C@H](N2CCOCC2)CC1`
1.76

---

Target: Insulin-like growth factor 1 receptor (Homo sapiens)
Experiment: Inhibition of human IGF1R expressed in Sf21 cells by time-resolved fluorescence assay
class 1 if IC50 is below 60 nM. class 0 if not; exact matches included in class 0.

These solved cases illustrate the format of a correct answer.
Cc1nc(Cc2nc3ccc(-c4nn([C@H]5CC[C@H](N6CCOCC6)CC5)c5ncnc(N)c45)cc3[nH]2)cs1
class 0
Nc1ncnc2c1c(-c1ccc3nc(Cc4c(F)cccc4F)[nH]c3c1)nn2[C@H]1CC[C@H](N2CCOCC2)CC1
class 0
CN1CCN([C@H]2C[C@@H](c3nc(-c4ccc5ccc(-c6ccccc6)nc5c4)c4c(N)nccn43)C2)CC1
class 1
Nc1ncnc2c1c(-c1ccc3nc(Cc4ccccc4)[nH]c3c1)nn2[C@H]1CC[C@H](N2CCOCC2)CC1
class 0

Please turn your attention to the following entry.
API: query returns whether the compound falls strictly under 60 nM in IC50. Query: `Nc1ncnc2c1c(-c1ccc3[nH]c(Cc4c(F)cccc4Cl)nc3c1)nn2[C@H]1CC[C@H](N2CCOCC2)CC1`
class 0
